Assay: Intrinsic clearance in human hepatocytes measured per million cells at 1 uM measured for 0.5 to 120 mins by LC-MS/MS analysis
Format: ADME, cell-based, Hepatocyte
Details: time 0.5-120 min, read-out: CLH
assay readout: hepatocyte CLint at 1 µM (µL/min/1e6 cells)

Answered cases to consult:
Exercise: What value of measured hepatocyte CLint at 1 µM is listed for O=C1CC[C@H](N2Cc3cc(N4CCN(CC5CCN(c6ccc([C@@H]7c8ccc(O)cc8CC[C@@H]7c7ccccc7)cc6)CC5)CC4)ccc3C2=O)C(=O)N1 ?
Key: 3

Exercise: Okay, and CNC(=O)COc1cc2cc(Nc3nc(N4CCC(O[C@H]5C[C@H](N6CCC(c7ccc8c(c7F)CN(C7CCC(=O)NC7=O)C8=O)CC6)C5)CC4)ncc3Cl)ccc2n(C(C)C)c1=O (stereo partly specified) ?
Key: 3

Exercise: Okay, and Cn1c(=O)n([C@H]2CCC(=O)NC2=O)c2cccc(C#CCOC3CCN(C[C@H]4CC[C@H](n5cc(NC(=O)c6cnn7ccc(N8C[C@H]9C[C@@H]8CO9)nc67)c(C(F)F)n5)CC4)CC3)c21 ?
Key: 3

a = CCc1cc(N2C(=S)N(c3ccc(C#N)c(C(F)(F)F)c3)C(=O)C2(C)C)ccc1OCCN1CCN(CC(=O)Nc2cccc(NC3CCC(=O)NC3=O)c2)[C@H](C)C1 (stereo partly specified)
b = CN1CCN([C@@H]2CCCN(c3cnc(C(N)=O)c(Nc4ccc(C5CCN(CC6CCN(c7ccc(C(=O)N[C@H]8CCC(=O)NC8=O)nc7)CC6)CC5)cc4)n3)C2)C1=O
Exercise: // pick min by hepatocyte CLint at 1 µM: a , b Refer to your chosen item by its label in the answer.
Key: a
(a: 3 µL/min/1e6 cells, b: 5 µL/min/1e6 cells)

* * *

# fraction unbound at 18 h, 5 µM per record follows
Experiment: Protein binding in human plasma assessed as free fraction at 5 uM incubated for 18 hrs by LC-MS/MS analysis
Type: ADME, cell-free

Exercise: What value of measured fraction unbound at 18 h, 5 µM is listed for COc1cc(O[C@H]2C(C)(C)[C@H](NC(=O)c3ccc(N4CCC(CN5CCN(c6ccc(C(=O)N[C@H]7CCC(=O)NC7=O)c(F)c6)CC5)CC4)cc3)C2(C)C)ccc1C#N [LUXDEGALUTAMIDE] ?
Key: < 0.004

Exercise: Okay, and COc1cc(-c2cn(C)c(=O)c3cnc(N4CCC4)cc23)cc(OC)c1CN1CCC(CN2CCC3(CC2)CN(c2ccc4c(c2)C(=O)N([C@H]2CCC(=O)NC2=O)C4)C3)CC1 ?
Key: 0.29

Exercise: Okay, and O=C1CC[C@H](N2Cc3cc(N4CCN(CC5CCN(c6ccc([C@@H]7c8ccc(O)cc8CC[C@@H]7c7ccccc7)cc6)CC5)CC4)ccc3C2=O)C(=O)N1 ?
Key: < 0.003

Exercise: Okay, and Cc1ncsc1-c1ccc([C@H](C)NC(=O)[C@@H]2C[C@@H](O)CN2C(=O)[C@@H](NC(=O)CCCCCC(=O)N2CCN(CC[C@H](CSc3ccccc3)Nc3ccc(S(=O)(=O)NC(=O)c4ccc(N5CCN(CC6=C(c7ccc(Cl)cc7)CCC(C)(C)C6)CC5)cc4)cc3S(=O)(=O)C(F)(F)F)CC2)C(C)(C)C)cc1 ?
Key: < 0.003

Exercise: Okay, and CCc1cc(N2C(=S)N(c3ccc(C#N)c(C(F)(F)F)c3)C(=O)C2(C)C)ccc1OCCN1CCN(CC(=O)Nc2cccc(NC3CCC(=O)NC3=O)c2)[C@H](C)C1 (stereo not given in full) ?
Key: < 0.001
